Hey, just so you know, these numbers are from ChEMBL document CHEMBL1144409.

Test system: Mycobacterium tuberculosis
PROCEDURE_SUMMARY: In vitro actual minimum inhibitory concentration value of the compound was determined against Mycobacterium tuberculosis
Type: functional
QUANTITY: MIC (µg/mL)
Note: unit µg/mL is implicit; provide only the numeric part.

# count of solved cases: 5
CCc1c(C(=O)OC)[n+]([O-])c2cc(C)ccc2[n+]1[O-]
1.56
CCc1c(C(=O)OC)[n+]([O-])c2cc(C)c(C)cc2[n+]1[O-]
6.25
COC(=O)c1c(Cc2ccccc2)[n+]([O-])c2cc(C)c(C)cc2[n+]1[O-]
3.13
CCc1c(C(=O)OC)[n+]([O-])c2ccccc2[n+]1[O-]
1.56
CCc1c(C(=O)OC)[n+]([O-])c2cc(Cl)ccc2[n+]1[O-]
0.2

q: Which value of MIC has been reported for COC(=O)c1c(C)[n+]([O-])c2cc(Cl)c(Cl)cc2[n+]1[O-] in the records?
a: 0.2

q: Subsequent entry: COC(=O)c1c(Cc2ccccc2)[n+]([O-])c2ccc(Cl)cc2[n+]1[O-]
a: 0.1
